Reported gMFIr Cyno NK cells values are given for each entry in this list.
Target: T1, cynomolgus PVRIG on cells (cynomolgus, UniProt A0A2K5WVV8 41-322)
T1 construct: whole, on cells; also called cPVRIG; expi cPVRIG cells
T1 sequence: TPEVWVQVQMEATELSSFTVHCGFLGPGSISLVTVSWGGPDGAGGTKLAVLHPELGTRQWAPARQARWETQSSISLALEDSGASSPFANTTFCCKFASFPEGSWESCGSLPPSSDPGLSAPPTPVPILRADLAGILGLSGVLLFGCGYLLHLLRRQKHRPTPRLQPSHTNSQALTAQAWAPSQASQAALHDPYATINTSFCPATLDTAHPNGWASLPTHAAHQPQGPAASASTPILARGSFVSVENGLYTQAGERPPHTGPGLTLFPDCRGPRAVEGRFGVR
Assay: FACS, cyno PBMC, NK cells, 10ug/ml

binder: CHA.7.537 (antibody, V domains shown) VH: QVQLKESGPGLVAPSQSLSITCTVSGFSLIGHGVNWIRQPPGKGLEWLGVIWGDGNTDYNSALKSRLSISKDNSKSQVFLKMNSLQTDDTARYFCAVNSAMDYWGQGTAVTVSS VL: NIVMTQSPKSMSMSVGERVTLNCTASENVASFVSWYQQKPEQSPKLLIYGTSNRYTGVPDRFTGSGSATDFTLTISSVQAEDLGDYHCGQSYNYPFTFGSGTKLEIE
gMFIr Cyno NK cells: 1.18
--
binder: CHA.7.543 (antibody, V domains shown) VH: QVQLKESGPGLVAPSQSLSITCTVSGFSLSGYGIKWVRQPPGKGLEWLGTIWGDGSTDYNSALKSRLSISKDNSKSQVFLKMTSLQTDDTARYYCASDSLGITFGYWGQGTLVTVSA VL: DIQMTQTTSSLSASLGDRVTISCRASQDISNYLNWYQQKPDGTVKLLIYYTSRLHSGVPSRFSGSGSGTDYSLTISNLEQEDIATYFCQQGNTLPLTFGAGTKLELK
gMFIr Cyno NK cells: 1.35
--
binder: CHA.7.530 (antibody, V domains shown) VH: QVQLQQSGAELMRPGTSVKVSCKASGYAFTNHLIEWIKQRPGQGLEWIGVINPGSDSTDYNEKFKDKATLTADKSSSTAYMQLSSLTSDDSAVYFCARSLYYNSWFVYWGQGTLVTVSA VL: DIQMTQSPASLSASVGETVTITCRASENIYSYLAWYQQKRGKSPQLLVYNAKTLVEGVPSRFSGSGSGTQFSLKINSLQPEDFGSYYCQHHYGTPYTFGGGTKLEIK
gMFIr Cyno NK cells: 1.73
